Biological target: T1, HLA-A*02:01 (peptide-receptive MHC class I monomer from UV-ligand exchange) (human)
T1 construct: Monomers were captured on streptavidin-coated plates
Experiment: UV-exchange ELISA (anti-b2m); exchange yield grade: + >=10%, ++ >=20%, +++ >=50%, ++++ >=75%
peptide exchange yield listing for selected binders.

# count of solved cases: 7
• LLNEILEQV [peptide LLNEILEQV (SEQ ID NO 140)] = 50 to 75%
• SLVQRVETI (also called ECT2-001) [peptide SLVQRVETI (SEQ ID NO 142)] = 50 to 75%
• VLDGVLMEL [peptide VLDGVLMEL (SEQ ID NO 24)] = 50 to 75%
• KQFEGTVEI [peptide KQFEGTVEI (SEQ ID NO 138)] = 50 to 75%
• SVIDHIHLISV [peptide SVIDHIHLISV (SEQ ID NO 167)] = 50 to 75%
• KLQEEIPVL [peptide KLQEEIPVL (SEQ ID NO 135)] = 20 to 50%
• SILDDSFKL [peptide SILDDSFKL (SEQ ID NO 42)] = ≥ 75%

In: I have this binder here, SLLDENNVSSYL [peptide SLLDENNVSSYL (SEQ ID NO 184)] , and I need its recorded peptide exchange yield.
Out: 50 to 75%
